Reference source for all entries: patent US4010161A

# System: oedema induced by carragenine in SJ rats
# assay-details: Oedema induced by carragenine (anti-inflammatory effect)
# Assay type: in vivo
# stated-conditions: Rattus norvegicus, po, per os, AD40 = 40% active dose, read-out: Inflammation induced by carragenine AD40
# Description: The test of oedema induced by carragenine in SJ rats, in accordance with the technique of Winter and colleagues, (Proc. Soc. exp. Biol. Med., 1962, III, 544) was used. The effects of the compounds of the invention are markedly lower than that of the reference product.
Where a name gives a salt, the structure may show the parent alone.
property: ED40

Solved entries:
molecule	ED40
Cc1c(NC(=O)OCCN2CCN(c3ccccc3)CC2)c(=O)n(-c2ccccc2)n1C [SLB-197]	> 100 mg/kg
Cc1c(NC(=O)OCCN2CCN(c3cccc(C(F)(F)F)c3)CC2)c(=O)n(-c2ccccc2)n1C [SLB-186, hydrochloride]	100 mg/kg

Now consider a different molecule.
[ask] GET /values?readout=ED40&item= Cc1ccc(N2CCN(CCOC(=O)Nc3c(C)n(C)n(-c4ccccc4)c3=O)CC2)cc1 [SLB-209]
[reply] > 100 mg/kg

* * *

# System: oedema induced by carragenine in SJ rats
# assay-details: Oedema induced by carragenine (anti-inflammatory effect)
# Type: in vivo
# stated-conditions: Rattus norvegicus, po, per os, AD40 = 40% active dose, read-out: Inflammation induced by carragenine AD40
property: ED40 (mg/kg)
Give bare numbers, in mg/kg.

Some compounds with recorded ED40:
compound	experimental-value
Cc1c(NC(=O)OCCN2CCN(c3cccc(SC(F)(F)F)c3)CC2)c(=O)n(-c2ccccc2)n1C	76
Cc1c(N(C)C)c(=O)n(-c2ccccc2)n1C [Aminopyrine, reference compound]	50

We now examine a further compound.
[ask] Please look up its ED40: Cc1c(NC(=O)OCCN2CCN(c3cccc(Cl)c3)CC2)c(=O)n(-c2ccccc2)n1C
[reply] 100

* * *

# assay-details: Acute toxicity, 50% lethal dose in mice
# stated-conditions: mouse, in vivo, po; mice (CD1 strain, both sexes), per os; 50% lethal dose calculated graphically
Where a name gives a salt, the structure may show the parent alone.
Give measured LD50 for each item. Keep answers brief.
Answers are plain numbers, in mg/kg.

molecule	result-unit	LD50
Cc1c(NC(=O)OCCN2CCN(c3cccc(Cl)c3)CC2)c(=O)n(-c2ccccc2)n1C [SLB-207]	mg/kg	990

Provide LD50 values for the following items, in order.
1. Cc1ccc(N2CCN(CCOC(=O)Nc3c(C)n(C)n(-c4ccccc4)c3=O)CC2)cc1 [SLB-209]
2. Cc1c(NC(=O)OCCN2CCN(c3cccc(C(F)(F)F)c3)CC2)c(=O)n(-c2ccccc2)n1C [SLB-186, hydrochloride]
3. Cc1c(NC(=O)OCCN2CCN(c3ccccc3)CC2)c(=O)n(-c2ccccc2)n1C [SLB-197]

[reply]
410
2000
400
